Where a name gives a salt, the structure may show the parent alone.
I'd appreciate it if you could supply melting point values for the items below.

[
  {
    "compound": "C[C@@H]1CC[C@H]2[C@@H](CC[C@@H]3C[C@H](OC(=O)CCC(=O)O)CC[C@@]32C)C1 [Compound 34]",
    "measure": "melting point",
    "measured.result": "119 to 121 °C"
  },
  {
    "compound": "C=C1CC[C@H]2[C@@H]3CC[C@@H]4C[C@H](OC(=O)C[N+](C)(C)C)CC[C@]4(C)[C@H]3CC[C@]12C (as salt: chloride) [Compound 76]",
    "measure": "melting point",
    "measured.result": "175 to 177 °C"
  },
  {
    "compound": "C[C@@]12CCC[C@H]1[C@@H]1CC[C@@H]3C[C@H](NC(=O)CC(=O)O)CC[C@]3(C)[C@H]1CC2 [Compound 61]",
    "measure": "melting point",
    "measured.result": "126 to 128 °C"
  }
]

Would you be so kind as to report melting point for each listed record?
1. C[C@@]12CCCCC1[C@@H]1CC[C@@H]3C[C@H](OC(=O)CC(=O)O)CC[C@]3(C)[C@H]1CC2 (stereo partly shown) [Compound 102]
2. CC12CCCCC1C1CCC3CC(OS(=O)(=O)O)CCC3(C)C1CC2 (stereo not shown) (as salt: salt) [Compound 101]
3. COC[C@@]1(C)CC[C@H]2[C@@H](CC[C@@H]3C[C@H](OC(=O)CCC(=O)O)CC[C@@]32C)C1 [Compound 45]
4. C[C@@H]1CC[C@H]2[C@@H](CC[C@@H]3C[C@H](OS(=O)(=O)O)CC[C@@]32C)C1 (as salt: salt) [Compound 35]

["145.3 to 147.2 °C", "173 to 174 °C", "107 to 109 °C", "147 to 149 °C"]

Hi! Can you tell me melting point for each of these compounds?
1. C[C@]12CC[C@@H](OS(=O)(=O)O)C[C@H]1CC[C@@H]1[C@@H]2CC[C@]2(C)[C@@H](I)CC[C@@H]12 (as salt: salt) [Compound 93]
2. C=C(C)[C@H]1CC[C@H]2[C@@H]3CC[C@@H]4C[C@H](OC(=O)CC(=O)O)CC[C@]4(C)[C@H]3CC[C@]12C [Compound 88]
3. C[C@@]12CCC[C@H]1[C@@H]1CC[C@@H]3C[C@H](OC(=O)CCC[N+](C)(C)C)CC[C@]3(C)[C@H]1CC2 (as salt: chloride) [Compound 62]

1: 118 to 120 °C; 2: 147.7 to 148.3 °C; 3: 225 to 227 °C

Please supply melting point for each of the following items, keeping them in order.
1. C[C@]12CC[C@@H](OS(=O)(=O)O)C[C@H]1CC[C@@H]1[C@@H]2CC[C@@]2(C)[C@H]1CCC2(F)F (as salt: salt) [Compound 95]
2. COC(=O)C1(C)CCC2C(CCC3CC(OS(=O)(=O)O)CCC32C)C1C (stereo not shown) (as salt: salt) [Compound 22]
3. C=C1C[C@H]2[C@@H]3CC[C@@H]4C[C@H](OC(=O)CCC(=O)O)CC[C@]4(C)[C@H]3CC[C@]2(C)C1
4. C=C(C)[C@H]1CC[C@H]2[C@@H]3CC[C@@H]4C[C@H](OC(=O)CCC(=O)O)CC[C@]4(C)[C@H]3CC[C@]12C
5. C[C@H]1CC[C@H]2[C@@H]3CC[C@@H]4C[C@H](OC(=O)CCC(=O)O)CC[C@]4(C)[C@H]3CC[C@]12C

1. 185 to 187 °C
2. 145 to 147 °C
3. 165 to 165.7 °C
4. 148 to 149.5 °C
5. 141 to 142 °C
